System: Stearoyl-CoA desaturase (Homo sapiens, UniProt O00767) | Read-out: IC50 | Origin: multiple publications
Give bare numbers, in µM.

Sample records with IC50:
O=C(O)Cn1nnc(-c2cnc(N3CCC4(CC3)CC(=O)c3ccccc3O4)s2)n1 = 0.041
O=C(O)Cn1nnc(-c2cc(N3CCN(c4cccc(C(F)(F)F)c4)CC3)no2)n1 = 0.083
O=C(O)Cn1ccn(-c2cnc(N3CCC4(CCc5c(Cl)cccc5O4)CC3)s2)c1=O = 0.003
COc1ccc(NC(=O)c2cnc(N3CC(Oc4cc(F)ccc4Br)C3)cn2)cc1 = 0.009
O=C(O)CNc1nc2cnc(-c3cn(Cc4cc(Cl)c(Cl)c(Cl)c4)nn3)nc2s1 = 0.031

Pending compound:
IC50 for `O=C(O)Cn1nnc(-c2cc(N3CCN(C(=O)c4cc(C(F)(F)F)ccc4Cl)CC3)no2)n1` ? 0.024
